B1: CPEB3 Ribozyme (parent)
chain: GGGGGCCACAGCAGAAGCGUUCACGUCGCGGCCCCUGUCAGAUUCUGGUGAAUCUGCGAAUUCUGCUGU

Variants of: B1
test: self-cleavage, relative activity (ratio to wild type); higher = more cleavage; co-transcriptional
Property: self-cleavage; scope: individual variants
Give the value as a plain number.

Recorded self-cleavage, per entry:
mutation_code="A16G U20G" value_observed=0.155
mutation_code="U53C C57U" value_observed=0.43

Prompt line: If you can, please state the reported self-cleavage value of U20A C66U .
Response line: 0.205

Prompt line: Also need C12U C32A , thanks.
Response line: 0.874

Prompt line: Now this one: G4C C45U
Response line: 0.733

Prompt line: Follow-up entry: G4U G31U
Response line: 0.126

Prompt line: Also check U21G U44A
Response line: 0.498

Prompt line: C12U U64C ?
Response line: 0.785

The origin of these recorded values is the RNAGym collection of RNA variant scans (doi:10.7554/elife.80360).
